// cross-study collection: pIC50 for CD73 (Homo sapiens (Human), UniProt P21589)
pIC50: −log10 of the molar value.

| molecule | recorded.endpoint | result |
| --- | --- | --- |
| O=c1[nH]c(C[C@](CO)(OC[C@H]2O[C@@H](n3ncc4c(NC5CCCC5)nc(Cl)nc43)[C@H](O)[C@@H]2O)P(=O)(O)O)no1 | pIC50 | ≥ 8.00 |
| CC(=O)N[C@H]1CC[C@@H](NC(=O)O[C@@H]2CCN(c3cn[nH]c(=O)c3Cl)C2)CC1 | pIC50 | 5.00 to 9.00 |
| O=P(O)(O)C(CO)(OC[C@H]1O[C@@H](n2ncc3c(NC4CCCC4)nc(Cl)nc32)[C@H](O)[C@@H]1O)c1nn[nH]n1 (some centres unmarked) | pIC50 | 7.00 to 8.00 |

Query block: What value of measured pIC50 is listed for `Cc1c(N2CC[C@@H](NC(=O)NC3CCCC3)C2)cnn(C(=O)NC2CCCC2)c1=O` ?
Result block: 5.00 to 9.00

Query block: What value of measured pIC50 is listed for `NCCn1ncc(N2CC[C@@H](OC(=O)N[C@@H]3CCC(F)(F)C3)C2)c(Cl)c1=O` ?
Result block: 5.00 to 9.00

Query block: What value of measured pIC50 is listed for `CS(=O)(=O)N[C@H]1CC[C@H](NC(=O)O[C@@H]2CCN(c3cn[nH]c(=O)c3Cl)C2)CC1` ?
Result block: 5.00 to 9.00

Query block: What value of measured pIC50 is listed for `O=C(NC1CCC(F)(F)CC1)O[C@H]1CN(c2cn[nH]c(=O)c2Cl)C[C@@H]1F` ?
Result block: 5.00 to 9.00

Query block: What value of measured pIC50 is listed for `C[C@H](Nc1nc(Cl)nc2c1cnn2[C@@H]1O[C@H](CS(=O)(=O)CP(=O)(O)O)[C@@H](O)[C@H]1O)c1ccccc1Cl` ?
Result block: ≥ 6.30

Query block: What value of measured pIC50 is listed for CC1(C)[C@@H]2CC[C@@]1(C)C(OC(=O)Cc1nc(Cl)nc3c1ncn3[C@@H]1O[C@H](COP(=O)(O)CP(=O)(O)O)C(O)C1O)C2 (some centres unmarked) ?
Result block: 7.00 to 8.00

Query block: What value of measured pIC50 is listed for `O=P(O)(O)CS(=O)(=O)C[C@H]1O[C@@H](n2ncc3c(NC4CCCC4)nc(Cl)nc32)[C@H](O)[C@@H]1O` ?
Result block: ≥ 6.30

Query block: What value of measured pIC50 is listed for `Cc1n[nH]c(=O)c(Cl)c1N1CC[C@@H](NC(=O)OC2CCCC2)C1` ?
Result block: 4.00 to 5.00

Query block: What value of measured pIC50 is listed for `Cn1ncc(N2CC[C@@H](OC(=O)N[C@H]3CC[C@H](NS(=O)(=O)c4ccc(F)cc4F)CC3)C2)c(Cl)c1=O` ?
Result block: 5.00 to 9.00

Query block: What value of measured pIC50 is listed for `N#Cc1ccc(NC(=O)N[C@H]2CC[C@H](NC(=O)O[C@@H]3CCN(c4cn[nH]c(=O)c4Cl)C3)CC2)cc1` ?
Result block: 5.00 to 9.00

Query block: What value of measured pIC50 is listed for `NC(=O)c1cc(S(=O)(=O)Nc2ccc(CCCNc3cc(N)n4nc(-c5ccco5)nc4n3)cc2)cc(Cl)c1O` ?
Result block: > 7.00
